// provenance: the supplement of paper PMC11246515

Catalogue of total protein half-life in vivo readings, one per entry.
# METHOD_NOTES: total protein half-life in vivo (active degradation + dilution); higher = more stable protein
# EXPERIMENTAL_SETUP: E. coli NCM3722 delta-clpP; growth: N-lim chemostat; doubling time 6 h

SEQ_TEXT: MMYHIPGVLSPQDVARFREQLEQAEWVDGRVTTGAQGAQVKNNQQVDTRSTLYAALQNEVLNAVNQHALFFAAALPRTLSTPLFNRYQNNETYGFHVDGAVRSHPQNGWMRTDLSATLFLSDPQSYDGGELVVNDTFGQHRVKLPAGDLVLYPSSSLHCVTPVTRGVRVASFMWIQSMIRDDKKRAMLFELDNNIQSLKSRYGESEEILSLLNLYHNLLREWSEI
SCALE_UNIT: h
total protein half-life in vivo: 2.79
--
SEQ_TEXT: MKILVDENMPYARDLFSRLGEVTAVPGRPIPVAQLADADALMVRSVTKVNESLLAGKPIKFVGTATAGTDHVDEAWLKQAGIGFSAAPGCNAIAVVEYVFSSLLMLAERDGFSLYDRTVGIVGVGNVGRRLQARLEALGIKTLLCDPPRADRGDEGDFRSLDELVQRADILTFHTPLFKDGPYKTLHLADEKLIRSLKPGAILINACRGAVVDNTALLTCLNEGQKLSVVLDVWEGEPELNVELLKKVDIGTSHIAGYTLEGKARGTTQVFEAYSKFIGHEQHVALDTLLPAPEFGRITLHGPLDQPTLKRLVHLVYDVRRDDAPLRKVAGIPGEFDKLRKNYLERREWSSLYVICDDASAASLLCKLGFNAVHHPAR
SCALE_UNIT: h
total protein half-life in vivo: 5.47
--
SEQ_TEXT: MKMNKSLIVLCLSAGLLASAPGISLADVNYVPQNTSDAPAIPSAALQQLTWTPVDQSKTQTTQLATGGQQLNVPGISGPVAAYSVPANIGELTLTLTSEVNKQTSVFAPNVLILDQNMTPSAFFPSSYFTYQEPGVMSADRLEGVMRLTPALGQQKLYVLVFTTEKDLQQTTQLLDPAKAYAKGVGNSIPDIPDPVARHTTDGLLKLKVKTNSSSSVLVGPLFGSSAPAPVTVGNTAAPAVAAPAPAPVKKSEPMLNDTESYFNTAIKNAVAKGDVDKALKLLDEAERLGSTSARSTFISSVKGKG
SCALE_UNIT: h
total protein half-life in vivo: 3.08

---

# METHOD_NOTES: total protein half-life in vivo (active degradation + dilution); higher = more stable protein
# EXPERIMENTAL_SETUP: E. coli NCM3722 delta-smpB; growth: N-lim chemostat; doubling time 6 h

SEQ_TEXT: MTEAQRHQILLEMLAQLGFVTVEKVVERLGISPATARRDINKLDESGKLKKVRNGAEAITQQRPRWTPMNLHQAQNHDEKVRIAKAASQLVNPGESVVINCGSTAFLLGREMCGKPVQIITNYLPLANYLIDQEHDSVIIMGGQYNKSQSITLSPQGSENSLYAGHWMFTSGKGLTAEGLYKTDMLTAMAEQKMLSVVGKLVVLVDSSKIGERAGMLFSRADQIDMLITGKNANPEILQQLEAQGVSILRV [P0A9W0]
total protein half-life in vivo (h): 5.95

SEQ_TEXT: MTLDLPRRFPWPTLLSVCIHGAVVAGLLYTSVHQVIELPAPAQPISVTMVTPADLEPPQAVQPPPEPVVEPEPEPEPIPEPPKEAPVVIEKPKPKPKPKPKPVKKVQEQPKRDVKPVESRPASPFENTAPARLTSSTATAATSKPVTSVASGPRALSRNQPQYPARAQALRIEGQVKVKFDVTPDGRVDNVQILSAKPANMFEREVKNAMRRWRYEPGKPGSGIVVNILFKINGTTEIQ
total protein half-life in vivo (h): 2.92

SEQ_TEXT: MAEIGIFVGTMYGNSLLVAEEAEAILTAQGHKATVFEDPELSDWLPYQDKYVLVVTSTTGQGDLPDSIVPLFQGIKDSLGFQPNLRYGVIALGDSSYVNFCNGGKQFDALLQEQSAQRVGEMLLIDASENPEPETESNPWVEQWGTLLS
total protein half-life in vivo (h): 5.34

SEQ_TEXT: MLDLFKAIGLGLVVLLPLANPLTTVALFLGLAGNMNSAERNRQSLMASVYVFAIMMVAYYAGQLVMDTFGISIPGLRIAGGLIVAFIGFRMLFPQQKAIDSPEAKSKSEELEDEPSANIAFVPLAMPSTAGPGTIAMIISSASTVRQSSTFADWVLMVAPPLIFFLVAVILWGSLRSSGAIMRLVGKGGIEAISRLMGFLLVCMGVQFIINGILEIIKTYH [P0AEY1]
total protein half-life in vivo (h): 6.12

SEQ_TEXT: MKQHQSADNSQGQLYIVPTPIGNLADITQRALEVLQAVDLIAAEDTRHTGLLLQHFGINARLFALHDHNEQQKAETLLAKLQEGQNIALVSDAGTPLINDPGYHLVRTCREAGIRVVPLPGPCAAITALSAAGLPSDRFCYEGFLPAKSKGRRDALKAIEAEPRTLIFYESTHRLLDSLEDIVAVLGESRYVVLARELTKTWETIHGAPVGELLAWVKEDENRRKGEMVLIVEGHKAQEEDLPADALRTLALLQAELPLKKAAALAAEIHGVKKNALYKYALEQQG
total protein half-life in vivo (h): 5.25

SEQ_TEXT: MIHSSVKRWGNSPAVRIPATLMQALNLNIDDEVKIDLVDGKLIIEPVRKEPVFTLAELVNDITPENLHENIDWGEPKDKEVW [P0AE72]
total protein half-life in vivo (h): 2.35

SEQ_TEXT: MIVLPRRLSDEVADRVRALIDEKNLEAGMKLPAERQLAMQLGVSRNSLREALAKLVSEGVLLSRRGGGTFIRWRHDTWSEQNIVQPLKTLMADDPDYSFDILEARYAIEASTAWHAAMRATPGDKEKIQLCFEATLSEDPDIASQADVRFHLAIAEASHNIVLLQTMRGFFDVLQSSVKHSRQRMYLVPPVFSQLTEQHQAVIDAIFAGDADGARKAMMAHLSFVHTTMKRFDEDQARHARITRLPGEHNEHSREKNA [P0ACL7]
total protein half-life in vivo (h): 2.04

---

# METHOD_NOTES: total protein half-life in vivo (active degradation + dilution); higher = more stable protein
# EXPERIMENTAL_SETUP: wild type E. coli NCM3722; growth: C-lim chemostat; doubling time 12 h
Catalogue of total protein half-life in vivo readings, one per entry.

SEQ_TEXT: MTQFNPVDHPHRRYNPLTGQWILVSPHRAKRPWQGAQETPAKQVLPAHDPDCFLCAGNVRVTGDKNPDYTGTYVFTNDFAALMSDTPDAPESHDPLMRCQSARGTSRVICFSPDHSKTLPELSVAALTEIVKTWQEQTAELGKTYPWVQVFENKGAAMGCSNPHPHGQIWANSFLPNEAEREDRLQKEYFAEQKSPMLVDYVQRELADGSRTVVETEHWLAVVPYWAAWPFETLLLPKAHVLRITDLTDAQRSDLALALKKLTSRYDNLFQCSFPYSMGWHGAPFNGEENQHWQLHAHFYPPLLRSATVRKFMVGYEMLAETQRDLTAEQAAERLRAVSDIHFRESGV
total protein half-life in vivo, h: 12.5
//
SEQ_TEXT: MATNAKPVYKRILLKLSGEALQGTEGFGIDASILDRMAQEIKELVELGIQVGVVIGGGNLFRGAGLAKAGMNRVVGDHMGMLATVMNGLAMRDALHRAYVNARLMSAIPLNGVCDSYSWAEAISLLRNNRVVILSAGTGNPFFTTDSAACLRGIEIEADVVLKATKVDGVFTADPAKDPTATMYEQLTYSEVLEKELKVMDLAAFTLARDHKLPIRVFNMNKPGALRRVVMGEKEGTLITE [P0A7E9]
total protein half-life in vivo, h: 10.4
//
SEQ_TEXT: MIKKIGVLTSGGDAPGMNAAIRGVVRSALTEGLEVMGIYDGYLGLYEDRMVQLDRYSVSDMINRGGTFLGSARFPEFRDENIRAVAIENLKKRGIDALVVIGGDGSYMGAMRLTEMGFPCIGLPGTIDNDIKGTDYTIGFFTALSTVVEAIDRLRDTSSSHQRISVVEVMGRYCGDLTLAAAIAGGCEFVVVPEVEFSREDLVNEIKAGIAKGKKHAIVAITEHMCDVDELAHFIEKETGRETRATVLGHIQRGGSPVPYDRILASRMGAYAIDLLLAGYGGRCVGIQNEQLVHHDIIDAIENMKRPFKGDWLDCAKKLY [P0A796]
total protein half-life in vivo, h: 10.3
//
SEQ_TEXT: MSIEIANIKKSFGRTQVLNDISLDIPSGQMVALLGPSGSGKTTLLRIIAGLEHQTSGHIRFHGTDVSRLHARDRKVGFVFQHYALFRHMTVFDNIAFGLTVLPRRERPNAAAIKAKVTKLLEMVQLAHLADRYPAQLSGGQKQRVALARALAVEPQILLLDEPFGALDAQVRKELRRWLRQLHEELKFTSVFVTHDQEEATEVADRVVVMSQGNIEQADAPDQVWREPATRFVLEFMGEVNRLQGTIRGGQFHVGAHRWPLGYTPAYQGPVDLFLRPWEVDISRRTSLDSPLPVQVLEASPKGHYTQLVVQPLGWYNEPLTVVMHGDDAPQRGERLFVGLQHARLYNGDERIETRDEELALAQSA
total protein half-life in vivo, h: 2.68
//
SEQ_TEXT: MYTLNWQPPYDWSWMLGFLAARAVSSVETVADSYYARSLAVGEYRGVVTAIPDIARHTLHINLSAGLEPVAAECLAKMSRLFDLQCNPQIVNGALGRLGAARPGLRLPGCVDAFEQGVRAILGQLVSVAMAAKLTARVAQLYGERLDDFPEYICFPTPQRLAAADPQALKALGMPLKRAEALIHLANAALEGTLPMTIPGDVEQAMKTLQTFPGIGRWTANYFALRGWQAKDVFLPDDYLIKQRFPGMTPAQIRRYAERWKPWRSYALLHIWYTEGWQPDEA
total protein half-life in vivo, h: 4.47
//
SEQ_TEXT: MSKSDVFHLGLTKNDLQGATLAIVPGDPDRVEKIAALMDKPVKLASHREFTTWRAELDGKPVIVCSTGIGGPSTSIAVEELAQLGIRTFLRIGTTGAIQPHINVGDVLVTTASVRLDGASLHFAPLEFPAVADFECTTALVEAAKSIGATTHVGVTASSDTFYPGQERYDTYSGRVVRHFKGSMEEWQAMGVMNYEMESATLLTMCASQGLRAGMVAGVIVNRTQQEIPNAETMKQTESHAVKIVVEAARRLL
total protein half-life in vivo, h: 13.7
//
SEQ_TEXT: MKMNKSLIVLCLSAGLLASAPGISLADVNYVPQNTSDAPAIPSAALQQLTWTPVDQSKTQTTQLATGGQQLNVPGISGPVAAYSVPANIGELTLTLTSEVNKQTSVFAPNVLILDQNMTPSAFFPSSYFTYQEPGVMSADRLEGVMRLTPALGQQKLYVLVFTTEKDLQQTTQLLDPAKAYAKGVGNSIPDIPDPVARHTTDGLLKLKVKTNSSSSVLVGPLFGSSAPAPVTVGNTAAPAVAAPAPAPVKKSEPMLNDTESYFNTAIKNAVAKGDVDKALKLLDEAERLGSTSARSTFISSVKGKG
total protein half-life in vivo, h: 10.5
//
SEQ_TEXT: MRLCDRDIEAWLDEGRLSINPRPPVERINGATVDVRLGNKFRTFRGHTAAFIDLSGPKDEVSAALDRVMSDEIVLDEGEAFYLHPGELALAVTLESVTLPADLVGWLDGRSSLARLGLMVHVTAHRIDPGWSGCIVLEFYNSGKLPLALRPGMLIGALSFEPLSGPAVRPYNRREDAKYRNQQGAVASRIDKD
total protein half-life in vivo, h: 7.69
//
SEQ_TEXT: MAKYNEKELADTSKFLSFVLRHKPEAIGIVLDREGWADIDKLILCAQKAGKRLTRALLDTVVATSDKKRFSYSSDGRCIRAVQGHSTSQVAISFAEKTPPQFLYHGTASRFLDEIKKQGLIAGERHYVHLSADEATARKVGARHGSPVILTVKAQEMAKRGLPFWQAENGVWLTSTVAVEFLEW
total protein half-life in vivo, h: 5.97
//
SEQ_TEXT: MTNLNYQQTHFVMSAPDIRHLPSDTGIEVAFAGRSNAGKSSALNTLTNQKSLARTSKTPGRTQLINLFEVADGKRLVDLPGYGYAEVPEEMKRKWQRALGEYLEKRQSLQGLVVLMDIRHPLKDLDQQMIEWAVDSNIAVLVLLTKADKLASGARKAQLNMVREAVLAFNGDVQVETFSSLKKQGVDKLRQKLDTWFSEMQPVEETQDGE [P0A6P7]
total protein half-life in vivo, h: 11.2
//
SEQ_TEXT: MDKFDANRRKLLALGGVALGAAILPTPAFATLSTPRPRILTLNNLHTGESIKAEFFDGRGYIQEELAKLNHFFRDYRANKIKSIDPGLFDQLYRLQGLLGTRKPVQLISGYRSIDTNNELRARSRGVAKKSYHTKGQAMDFHIEGIALSNIRKAALSMRAGGVGYYPRSNFVHIDTGPARHW [P0AB06]
total protein half-life in vivo, h: 6.36
